- System: SK-MEL-2 melanoma
- method: NCI tumour cell line growth inhibition, 48 h; in the data active = GI50 below about 0.43 µM; inactive = the rest
Please reply with one of these outcomes: TRUE for active, FALSE for inactive

Past entries and their recorded results:
>>> print(df.to_string())
                               smiles_entry  qualitative_label
0  Cc1ccc2c(c1)c1nc3cc(C)c(C)cc3nc1n2CCN(C)C              FALSE
1  CCC[CH2][Sn]([CH2]CCC)([O]C(=O)c1cc(F)ccc1F)[O][Sn]([CH2]CCC)([CH2]CCC)[O]C(=O)c1cc(F)ccc1F               TRUE
2  CN(c1cc2ncc(=O)[nH]c2cc1NC(N)=NCc1ccc(Cl)cc1)C1CCCCC1              FALSE

Proceed to the following item.
### Prompt Would you mind telling me which call this test gave `Cn1cc(C2=C(c3cccc(N)c3)C(=O)NC2=O)c2ccccc21` ?
### Response FALSE

----------
Here the recorded TGI is given for each entry.
- System: NCI-H226 lung
- method: NCI tumour cell line growth inhibition, 48 h

These recorded examples may help you get a feel for the data.
>>> print(df.to_string())
                                   molecule  assay_metric    result
0  CSc1cccc(-n2c3nc(=O)n(C)c(=O)c-3nc3ccccc32)c1           TGI   28.9 µM
1  COc1cc2c(c(O)c1OC)C(O)C1CCC(=O)N1C2c1cccc2ccccc12 (stereo unspecified)           TGI  > 100 µM

### Prompt Entry O=C1CC(c2cccc(O)c2)C2(C(=O)NC(=S)NC2=O)C(c2cccc(O)c2)C1 (stereo unspecified) has what TGI?
### Response > 100 µM

### Prompt `COc1ccc(/C=C2\C(=O)N(C)C(=O)c3cc(OC)c(OC)cc32)cc1OC` ?
### Response 34.7 µM

### Prompt `CC[O-].CC[O-].O=C([CH-]C(=O)c1cccnc1)c1ccccc1.O=C([CH-]C(=O)c1cccnc1)c1ccccc1.[Ti+4]` ?
### Response > 100 µM

----------
- System: UACC-62 melanoma
- method: NCI tumour cell line growth inhibition, 48 h; in the data active = GI50 below about 0.43 µM; inactive = the rest
Please reply with one of these outcomes: active, inactive

>>> df
                               smiles_entry  qualitative_label
0  Cn1ccnc1C(=O)/C=C/c1ccc(C(=O)Nc2ccc(S(F)(F)(F)(F)F)cc2)cc1           inactive
1  CC(C)c1c(C(=O)Nc2ccccc2)c(-c2ccccc2)c(-c2ccc(F)cc2)n1CC[C@@H]1CC=CC(=O)O1           inactive
2     CCOc1ccc(-c2cnnn2-c2nonc2-n2cccc2)cc1             active
3  COC(=O)C1=C(C)NC(C)=C(C(=O)OC)C1/C=C(\Cl)c1ccc(Cl)c(Cl)c1           inactive
4  CN(c1cc2ncc(=O)[nH]c2cc1NC(N)=NCc1ccc(Cl)cc1)C1CCCCC1           inactive

### Prompt Would you mind telling me which call this test gave `CCOc1ccccc1NC(=O)c1cc2ccccc2cc1O` ?
### Response inactive

### Prompt `Fc1ccc(-c2nn3c(-c4ccc(F)c(Cl)c4)nnc3s2)cc1` ?
### Response inactive

### Prompt `Cc1ccc2c(c1)c1nc3cc(C)c(C)cc3nc1n2CCN(C)C` ?
### Response inactive

### Prompt `Cn1cc(C2=C(c3cn(CCO)c4ccccc34)C(=O)NC2=O)c2ccccc21` ?
### Response inactive

### Prompt `CCCc1cc(O)c2c3c(c(=O)oc2c1)CN(C)CC3` ?
### Response inactive

----------
- Test system: SN12C renal
- method: NCI tumour cell line growth inhibition, 48 h; in the data active = GI50 below about 0.43 µM; inactive = the rest
Please reply with one of these outcomes: active, inactive

                                   compound  qualitative_label
0  CCOC(=O)c1sc2ncn(Cc3cccc(Br)c3)c(=O)c2c1C           inactive

### Prompt Would you mind telling me which call this test gave CN(CCCCCl)P(=O)(OCc1ccc([N+](=O)[O-])o1)OCC1OC(n2ccc(N)nc2=O)C(F)(F)C1O (configuration not stated) ?
### Response active

### Prompt `N=C(N)c1ccc(OCCOCCOc2ccc(C(=N)N)cc2)cc1` ?
### Response inactive

### Prompt `Cc1cc2cc3cc(C)c(N(C)C)cc3[n+](C)c2cc1N(C)C` ?
### Response inactive

### Prompt `CC(=O)Nc1ccc(/C=C/C(=O)c2ccccc2)cc1` ?
### Response inactive

### Prompt `O=S(=O)(Cc1ccc(Cl)cc1Cl)c1ccc(Cl)cc1` ?
### Response inactive

### Prompt `C/C=C/C/C=C/CCC(=O)[C@H]1O[C@H]1C(N)=O` ?
### Response inactive

----------
- Test system: HCT-15 colon
- method: NCI tumour cell line growth inhibition, 48 h
Here the recorded TGI is given for each entry.

These recorded examples may help you get a feel for the data.
>>> print(df.to_string())
                                   compound    result
0  Fc1ccc(-c2nn3c(-c4ccc(F)c(Cl)c4)nnc3s2)cc1   > 50 µM
1  O=C(Nc1ccc(F)cc1)Nc1ccccc1CNc1nc(Nc2ccc(OCCN3CCCC3)cc2)ncc1Cl   6.06 µM
2  CCN1C=C/C(=C\C=C/c2cc[n+](CC)c3ccccc23)c2ccccc21   34.1 µM
3  C#CCNC(=O)NCCCC(NC(C)=O)C(=O)NCc1ccccc1 (configuration not stated)  > 100 µM
4  Cc1oc2c(C)c3oc(=O)cc(C)c3cc2c1CNC(=O)[C@@H]1OCCOCCOCCOCCOCCOC1C(=O)O (some centres not stated)  > 100 µM
5  O=S1(=O)C(c2ccccc2)C(N2CCCCC2)C1C1CC2c3ccccc3C1c1ccccc12 (configuration not stated)  > 100 µM
6  Cc1ccc(NC(=O)Cc2ccc(/C=C/C(=O)c3ncc[nH]3)cc2)cc1   15.6 µM
7  CC(C)c1c(C(=O)Nc2ccccc2)c(-c2ccccc2)c(-c2ccc(F)cc2)n1CC[C@@H]1CC=CC(=O)O1   3.85 µM

### Prompt Entry `O=c1[nH]cnc2c1sc1nc3ccccc3n12` has what TGI?
### Response > 100 µM

### Prompt `Cc1ccccc1C1=[N+]([O-])c2ccccc2C1=O` ?
### Response 34.8 µM

### Prompt `CCN(CC)c1ccc(/C=C2/C[N+](C)(C)C/C(=C/c3ccc(N(CC)CC)cc3)C2=O)cc1` ?
### Response > 100 µM

### Prompt `COc1cc(-n2cc(-c3ccc(F)cc3)nc2SCc2ccccc2)cc(OC)c1OC` ?
### Response > 100 µM

### Prompt O=C1N(c2ccccc2)C2(c3ccccc3)CC3CCCC13S2 (configuration not stated) ?
### Response > 100 µM

### Prompt `CC(C)[C@H]1CC[C@H]2[C@@H](CC[C@H]3[C@](C)(CN)CCC[C@]23C)C1` ?
### Response 3.98 µM

### Prompt `Nc1ccc2nc(NCc3ccc(F)cc3)cnc2c1` ?
### Response > 100 µM

----------
- System: PC-3 prostate
- method: NCI tumour cell line growth inhibition, 48 h
assay metric: TGI (µM)
Expressed in µM, but write only the number.

In [3]: df
Out[3]:
                               smiles_entry  numeric_readout
0  COc1cc2c(cc1O)-c1c(cnn1-c1ccc([N+](=O)[O-])cc1)CCC2             58.7

Now look at this entry.
### Prompt # get_value(readout= TGI, system= PC-3 prostate) for `CN(c1cc2ncc(=O)[nH]c2cc1NC(N)=NCc1ccc(Cl)cc1)C1CCCCC1`
### Response 12.5

----------
This document collects GI50 values reported for MDA-MB-435.

### Prompt Entry `CCCCCc1nc2c(c3c1CCCC3)CCCC2` has what GI50?
### Response 14.4 µM

### Prompt `N=C(N)c1ccc(OCCOCCOc2ccc(C(=N)N)cc2)cc1` ?
### Response 84.8 µM

### Prompt `Cc1cc2cc3cc(C)c(N(C)C)cc3[n+](C)c2cc1N(C)C` ?
### Response 3.1 µM

### Prompt CC(=O)N1N=C(c2ccc(Nc3nc(Nc4ccc(Cl)cc4)nc(Nc4ccc(Cl)cc4)n3)cc2)CC1c1ccc([N+](=O)[O-])cc1 (stereo unspecified) ?
### Response 4.59 µM

### Prompt `N#Cc1cccc(OCc2nc(N)nc(N)c2-c2ccc(Cl)c(Cl)c2)c1` ?
### Response 0.486 µM

### Prompt `CC(=O)Nc1ccc(/C=C/C(=O)c2ccccc2)cc1` ?
### Response 17.4 µM

----------
Here the recorded TGI is given for each entry.
- Tested on: A498 renal
- method: NCI tumour cell line growth inhibition, 48 h

These recorded examples may help you get a feel for the data.
compound	result
COP(=O)(Cc1ccc(/C=C/C#N)o1)OC	> 100 µM
CSc1nc(NC2OCC(OC(C)=O)C(OC(C)=O)C2OC(C)=O)c(N=C(C)C(C)=O)c(=O)[nH]1 (centres undefined)	> 100 µM
CC(C)(C)OC(=O)NCC(=O)NC1c2ccsc2/C(=N/O)[C@H]1O (some centres undefined)	> 100 µM
O=C(Nc1nc(C23CC4CC(CC(C4)C2)C3)cs1)c1c(O)c2ccccc2[nH]c1=O	> 100 µM
CC1=NNC(=O)C1C1CC(c2c[nH]c3ccccc23)=NNC1=S (centres undefined)	> 100 µM

### Prompt Entry CC(C)CC[C@H](O)[C@@H](C)[C@H]1[C@@H](OC2OC(C)C(O)C(O)C2O)C[C@H]2[C@@H]3CC=C4C[C@@H](O)CC[C@]4(C)[C@H]3[C@@H](O)C[C@]12C (some centres undefined) has what TGI?
### Response > 34.9 µM

### Prompt CC1=NOC2(C1)C(=O)Nc1ccccc12 (centres undefined) ?
### Response 96.4 µM

### Prompt `C1=Nc2ccc(cc2)N=Cc2ccc(cc2)OCc2cccc(n2)COc2ccc1cc2` ?
### Response > 100 µM

### Prompt CC(=O)Oc1cc(C)c2c(c1OC(C)=O)CC1(O2)[C@@H](C)CCC2[C@@]3(C)CC[C@H](OC(C)=O)C(C)(C)C3CC[C@]21C (some centres undefined) ?
### Response 21.4 µM
